- Target of assay: A*02:06
- Assay overview: SPR
Catalogue of binders with associated Kd
API: value field is a number in nM; no unit string.

Before answering, review these 2 worked examples.
{"Binder": "AS170036 VL1VH1 (Fc fusion) QSALTQPRSVSGSPGQSVTISCAGTSSDVGSENYVSWYQQHPGKAPKLMIYQVNKRASGVPDRFSGSKSGNTASLTISGLQAEDEADYYCASYRSSDHNIVFGGGTKLTVLGGGGSGGGGSGGGGSEVQLVESGGGLVQPGGSLRLSCAASGFTFSSYAMSWVRQAPGKGLEWVSTINSGTGSPYYADSVKGRFTISRDNSKNTLYLQMNSLRAEDTAVYYCAKNFFDGSWFLGPPAMDYWGQGTLVTVSS", "Endpoint result": 2770}
{"Binder": "AS179732 (Fc fusion) NFMLTQPPSMSGSPRQSVTISCTGSSSNIGGNYVNWYQHLPGTAPKLLIYDNSNRASGVPERFSGSKSGSSASLTITGLQAEDEGDYYCASWDDSLSGAVFGGGTHLTVLGGGGSGGGGSGGGGSEVQLVESGGGLVQPGGSLRLSCAASGFTFLNYAMSWVRQAPGKGLEWVSSNSGAGSTYYSDSVKGRFTISRDYAKNVVYLQLNSLKTEDTGMYYCAKGTNVGSWSSLHYWGQGTQVTVSS", "Endpoint result": 191}

Now look at this one.
query: Provide Kd value for the following binder: AS179723 (Fc fusion) QAGLTQPPSMSGSPRQSVTISCTGSSNNIGGNYVNWYQHLPGTAPKLLIYDNKNRPSGVPEQISGSKSGSSASLTITGLQAEDEGDYYCASWDDSLSAVVFGGGTHLTVLGGGGSGGGGSGGGGSEVQLVESGGGLVQPGGSLRLSCAASGFTFLNYAMSWVRQAPGKGLEWVSSNSGAGSTYYSDSVKGRFTISRDYAKNVVYLQLNSLKTEDTGMYYCAKGTNVGSWSSLHYWGQGTQVTVSS
result: 114
